Tested on: Acinetobacter baumannii
Assay: Antibacterial activity against Acinetobacter baumannii assessed as inhibition of bacterial growth incubated for 24 hrs by broth microdilution method
Format: functional
Conditions: read-out: MIC100
Can you tell me MIC for the items I'm about to list?
Hi! Could you send only the number? It should be in µg/mL, unit omitted.

Fill in: MIC of CC(C)CCCCC(=O)N[C@@H](CCN)C(=O)N[C@H](C(=O)N[C@@H](CCN)C(=O)N[C@H]1CCNC(=O)[C@H]([C@@H](C)O)NC(=O)[C@H](CCN)NC(=O)[C@H](CCN)NC(=O)[C@H](CC(C)C)NC(=O)[C@@H](Cc2ccccc2)NC(=O)[C@H](CCN)NC1=O)[C@@H](C)OC(=O)[C@@H](N)CCCNC(=N)N is ___ 0.25

Fill in: MIC of CC(C)CCCCC(=O)N[C@@H](CCN)C(=O)N[C@H](C(=O)N[C@@H](CCN)C(=O)N[C@H]1CCNC(=O)[C@H]([C@@H](C)O)NC(=O)[C@H](CCN)NC(=O)[C@H](CCN)NC(=O)[C@H](CC(C)C)NC(=O)[C@@H](Cc2ccccc2)NC(=O)[C@H](CCN)NC1=O)[C@H](C)OC(=O)[C@@H](N)CCC(N)=O is ___ 0.06

Fill in: MIC of CCCCCc1ccc(CN[C@@H](CCN)C(=O)N[C@H](C(=O)N[C@@H](CCN)C(=O)N[C@H]2CCNC(=O)[C@H]([C@@H](C)O)NC(=O)[C@H](CCN)NC(=O)[C@H](CCN)NC(=O)[C@H](CC(C)C)NC(=O)[C@@H](Cc3ccccc3)NC(=O)[C@H](CCN)NC2=O)[C@@H](C)O)cc1 is ___ 0.25

Fill in: MIC of CC(C)C[C@@H]1NC(=O)[C@@H](Cc2ccccc2)NC(=O)[C@H](CCN)NC(=O)[C@@H](NC(=O)[C@H](CCN)NC(=O)[C@@H](NC(=O)[C@H](CCN)NC(=O)CCCCCCCN)[C@@H](C)O)CCNC(=O)[C@H]([C@@H](C)O)NC(=O)[C@H](CCN)NC(=O)[C@H](CCN)NC1=O is ___ 2

Fill in: MIC of CC(C)CCCCC(=O)N[C@@H](CCN)C(=O)N[C@H](C(=O)N[C@@H](CCN)C(=O)N[C@H]1CCNC(=O)[C@H]([C@@H](C)O)NC(=O)[C@H](CCN)NC(=O)[C@H](CCN)NC(=O)[C@H](CC(C)C)NC(=O)[C@@H](Cc2ccccc2)NC(=O)[C@H](CCN)NC1=O)[C@@H](C)OC(=O)[C@@H](N)CO is ___ 0.125

====

Test system: Acinetobacter baumannii
Assay: Antibacterial activity against Acinetobacter baumannii assessed as inhibition of bacterial growth incubated for 24 hrs by broth microdilution method
Type: functional
Details: read-out: MIC100
Positions of bridges follow the written chain, without caps; N, C: chain ends. Non-standard residues stand in square brackets, D forms with d. Residues, ends and D or L forms follow the SMILES beside them. *: point of attachment. Octanoyl = CCCCCCCC(=O)*; Dab = NCC[C@H](N)C(=O)O
Note to self: MIC under 0.2 µg/mL means 1, ties and anything higher get -1.

Please let me know if CC(C)CCCCC(=O)N[C@@H](CCN)C(=O)N[C@H](C(=O)N[C@@H](CCN)C(=O)N[C@H]1CCNC(=O)[C@H]([C@@H](C)O)NC(=O)[C@H](CCN)NC(=O)[C@H](CCN)NC(=O)[C@H](CC(C)C)NC(=O)[C@@H](Cc2ccccc2)NC(=O)[C@H](CCN)NC1=O)[C@@H](C)OC(=O)CN shows MIC below 0.2 µg/mL. 1

Please let me know if CC(=O)O[C@H](C)[C@H](NC(=O)[C@H](CCN)NC(=O)CCCCC(C)C)C(=O)N[C@@H](CCN)C(=O)N[C@H]1CCNC(=O)[C@H]([C@@H](C)O)NC(=O)[C@H](CCN)NC(=O)[C@H](CCN)NC(=O)[C@H](CC(C)C)NC(=O)[C@@H](Cc2ccccc2)NC(=O)[C@H](CCN)NC1=O shows MIC below 0.2 µg/mL. -1

Please let me know if CC(C)CCCCC(=O)N[C@@H](CCN)C(=O)N[C@H](C(=O)N[C@@H](CCN)C(=O)N[C@H]1CCNC(=O)[C@H]([C@@H](C)O)NC(=O)[C@H](CCN)NC(=O)[C@H](CCN)NC(=O)[C@H](CC(C)C)NC(=O)[C@@H](Cc2ccccc2)NC(=O)[C@H](CCN)NC1=O)[C@@H](C)OC(=O)[C@@H](N)C(C)C shows MIC below 0.2 µg/mL. -1

Please let me know if CC[C@H](C)CCCCC(=O)N[C@@H](CCN)C(=O)N[C@H](C(=O)N[C@@H](CCN)C(=O)N[C@H]1CCNC(=O)[C@H]([C@@H](C)O)NC(=O)[C@H](CCN)NC(=O)[C@H](CCN)NC(=O)[C@H](CC(C)C)NC(=O)[C@@H](Cc2ccccc2)NC(=O)[C@H](CCN)NC1=O)[C@@H](C)OC(=O)CN shows MIC below 0.2 µg/mL. 1

Please let me know if CC(C)CCCCC(=O)N[C@@H](CCN)C(=O)N[C@H](C(=O)N[C@@H](CCN)C(=O)N[C@H]1CCNC(=O)[C@H]([C@@H](C)O)NC(=O)[C@H](CCN)NC(=O)[C@H](CCN)NC(=O)[C@H](CC(C)C)NC(=O)[C@@H](Cc2ccccc2)NC(=O)[C@H](CCN)NC1=O)[C@@H](C)OC(=O)[C@@H](N)Cc1ccccc1 shows MIC below 0.2 µg/mL. -1

Please let me know if CC(C)CCCCC(=O)N[C@@H](CCN)C(=O)N[C@H](C(=O)N[C@@H](CCN)C(=O)N[C@H]1CCNC(=O)[C@H]([C@@H](C)OC(=O)CN)NC(=O)[C@H](CCN)NC(=O)[C@H](CCN)NC(=O)[C@H](CC(C)C)NC(=O)[C@@H](Cc2ccccc2)NC(=O)[C@H](CCN)NC1=O)[C@@H](C)OC(=O)CN shows MIC below 0.2 µg/mL. 1

Please let me know if CC(C)CCCCC(=O)N[C@@H](CCN)C(=O)N[C@@H](Cc1ccccc1)C(=O)N[C@@H](CCN)C(=O)N[C@H]1CCNC(=O)[C@H]([C@@H](C)O)NC(=O)[C@H](CCN)NC(=O)[C@H](CCN)NC(=O)[C@H](CC(C)C)NC(=O)[C@@H](Cc2ccccc2)NC(=O)[C@H](CCN)NC1=O shows MIC below 0.2 µg/mL. -1

Please let me know if CC(C)CCCCC(=O)N[C@@H](CCN)C(=O)N[C@H](C(=O)N[C@@H](CCN)C(=O)N[C@H]1CCNC(=O)[C@H]([C@@H](C)O)NC(=O)[C@H](CCN)NC(=O)[C@H](CCN)NC(=O)[C@H](CC(C)C)NC(=O)[C@@H](Cc2ccccc2)NC(=O)[C@H](CCN)NC1=O)[C@@H](C)OC(=O)[C@@H](N)CCCCN shows MIC below 0.2 µg/mL. 1

Please let me know if CCCCCCCC(=O)N[C@@H](CCN)C(=O)N[C@H](C(=O)N[C@@H](CCN)C(=O)N[C@H]1CCNC(=O)[C@H](CC(C)C)NC(=O)[C@H](CCN)NC(=O)[C@H](CCN)NC(=O)[C@H](CC(C)C)NC(=O)[C@@H](Cc2ccccc2)NC(=O)[C@H](CCN)NC1=O)[C@@H](C)O (Octanoyl-[Dab]T[Dab][Dab][Dab][dF]L[Dab][Dab]L; lactam 4-C) shows MIC below 0.2 µg/mL. -1
